# System: PPARg DBDmut IVT, anti-PPARg (DBD mutation: PPARg1 K132A/R137A, NR concentration 270 nM)
# Test: PBM binding z-score (relative to random genomic background probes); higher = stronger binding; sequences stand for … in GC…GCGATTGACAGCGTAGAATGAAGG
Everything with PBM binding z-score lower than -0.2 is not met; everything else, including exactly -0.2, is met.

Here are 8 sequences together with their reported answers.
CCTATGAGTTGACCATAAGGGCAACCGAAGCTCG	not met
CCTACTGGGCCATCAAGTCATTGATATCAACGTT	met
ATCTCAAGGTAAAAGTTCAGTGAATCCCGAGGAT	met
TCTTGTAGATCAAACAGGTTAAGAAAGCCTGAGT	met
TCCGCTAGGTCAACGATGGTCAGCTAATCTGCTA	not met
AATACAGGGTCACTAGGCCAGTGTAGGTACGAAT	met
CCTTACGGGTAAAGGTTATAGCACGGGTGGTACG	not met
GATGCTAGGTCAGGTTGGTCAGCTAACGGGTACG	not met

Hi, just wondering whether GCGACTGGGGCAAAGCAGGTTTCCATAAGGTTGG shows PBM binding z-score of -0.2 or higher.
not met

Tell me whether PBM binding z-score is at least -0.2 here: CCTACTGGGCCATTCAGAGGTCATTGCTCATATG
not met

Textbook exercise: given the entry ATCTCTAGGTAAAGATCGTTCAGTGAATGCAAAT , state whether its PBM binding z-score is greater than or equal to -0.2.
met

###

# System: LXRa:RXRa (NR concentration 270 nM, RXRa partner concentration 90 nM)
# Test: PBM binding z-score (relative to random genomic background probes); higher = stronger binding; sequences stand for … in GC…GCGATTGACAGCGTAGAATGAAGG
Binary call on PBM binding z-score: TRUE from 3 upward, FALSE beneath that.

Some solved entries appear below for comparison.
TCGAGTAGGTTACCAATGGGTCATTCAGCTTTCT	TRUE
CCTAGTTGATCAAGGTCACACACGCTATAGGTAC	TRUE
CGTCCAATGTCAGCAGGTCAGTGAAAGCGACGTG	FALSE

# check: PBM binding z-score of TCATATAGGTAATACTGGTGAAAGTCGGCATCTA is greater than or equal to 3
FALSE

Evaluate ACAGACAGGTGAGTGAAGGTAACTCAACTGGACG : PBM binding z-score at minimum 3?
FALSE

Hi, just wondering whether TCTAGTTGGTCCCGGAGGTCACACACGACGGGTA shows PBM binding z-score of 3 or higher.
FALSE

Hi team, for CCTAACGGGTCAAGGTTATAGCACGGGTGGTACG , is the recorded PBM binding z-score at or above 3?
TRUE

Item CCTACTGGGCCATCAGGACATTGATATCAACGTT with PBM binding z-score of 3 or above?
FALSE

Hi, just wondering whether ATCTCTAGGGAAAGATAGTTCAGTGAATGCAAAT shows PBM binding z-score of 3 or higher.
FALSE

###

# System: PPARg DBDmut:RXRa IVT, anti-PPARg (DBD mutation: PPARg1 K132A/R137A, NR concentration 270 nM, RXRa partner concentration 90 nM)
# Test: PBM binding z-score (relative to random genomic background probes); higher = stronger binding; sequences stand for … in GC…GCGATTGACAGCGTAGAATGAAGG
Metric name: PBM binding z-score
Give only the figure.

Item under review: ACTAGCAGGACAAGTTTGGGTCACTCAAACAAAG . Reported PBM binding z-score?
0.113

# lookup: PBM binding z-score of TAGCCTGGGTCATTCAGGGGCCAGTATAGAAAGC
0.524

Given the entry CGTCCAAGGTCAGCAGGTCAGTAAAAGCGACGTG , report its measured PBM binding z-score.
0.159

Entry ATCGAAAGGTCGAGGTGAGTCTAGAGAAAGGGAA : reported PBM binding z-score = ?
0.697

Name the recorded PBM binding z-score for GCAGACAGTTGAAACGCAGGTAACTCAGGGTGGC .
-1.02

Quick one: PBM binding z-score for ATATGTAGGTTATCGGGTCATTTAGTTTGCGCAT ?
1.55

Endpoint output: PBM binding z-score of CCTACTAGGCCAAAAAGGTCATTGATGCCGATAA . Value?
-0.262

Query: PBM binding z-score; subject: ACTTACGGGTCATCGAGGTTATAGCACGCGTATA
1.78

###

# Tested on: PPARg DBDmut:RXRa IVT, anti-PPARg (DBD mutation: PPARg1 K132A/R137A, NR concentration 270 nM, RXRa partner concentration 90 nM)
# Test: PBM binding z-score (relative to random genomic background probes); higher = stronger binding; sequences stand for … in GC…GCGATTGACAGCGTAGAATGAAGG
// reported PBM binding z-score per item
Answer as a number with no unit attached.

Answered cases to consult:
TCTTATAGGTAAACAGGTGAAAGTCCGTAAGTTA	1.36
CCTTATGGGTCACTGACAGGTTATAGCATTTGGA	0.901

Here is another sequence to look at.
What value of PBM binding z-score has been recorded for this entry: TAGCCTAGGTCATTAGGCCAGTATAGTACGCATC
0.301

###

Below: a set of entries, each annotated with reported PBM binding z-score.
# Tested on: PPARa:RXRa (NR concentration 270 nM, RXRa partner concentration 90 nM)
# Test: PBM binding z-score (relative to random genomic background probes); higher = stronger binding; sequences stand for … in GC…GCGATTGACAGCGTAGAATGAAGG

Some sequences with known PBM binding z-score results, for comparison:
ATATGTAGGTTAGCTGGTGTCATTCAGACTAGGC	2.74
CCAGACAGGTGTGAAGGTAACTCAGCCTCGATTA	-0.298

Could you tell me which PBM binding z-score is on file for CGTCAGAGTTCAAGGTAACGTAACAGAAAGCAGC ?
4.54

Suppose we examine the sequence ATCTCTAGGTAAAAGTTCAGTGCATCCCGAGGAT ; what PBM binding z-score value has been reported?
4.39

Look up PBM binding z-score: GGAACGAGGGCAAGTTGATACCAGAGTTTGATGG
1.58

Give the measured PBM binding z-score of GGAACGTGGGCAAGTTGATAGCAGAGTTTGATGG .
-0.579

Need PBM binding z-score, item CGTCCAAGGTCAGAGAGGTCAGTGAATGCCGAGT
4.72

Entry under review: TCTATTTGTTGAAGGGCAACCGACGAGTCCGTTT . Reported PBM binding z-score?
0.93

###

# System: THRa homodimer (NR concentration 90 nM)
# Test: PBM binding z-score (relative to random genomic background probes); higher = stronger binding; sequences stand for … in GC…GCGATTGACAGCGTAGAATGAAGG
Grouping rule (PBM binding z-score): low: < -0.2; medium: ≥ -0.2 and < 1; high: ≥ 1

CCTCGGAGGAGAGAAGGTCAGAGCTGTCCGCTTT	low

Band of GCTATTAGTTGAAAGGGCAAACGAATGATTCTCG ?
low

Kindly state the category for this sequence: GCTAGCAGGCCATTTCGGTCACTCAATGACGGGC
low

Which class does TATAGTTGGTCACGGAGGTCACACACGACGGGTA fall in?
high

// bin(item) where item = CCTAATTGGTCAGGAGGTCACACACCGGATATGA
high

# classify by PBM binding z-score band: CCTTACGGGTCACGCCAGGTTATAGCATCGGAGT
medium

Sort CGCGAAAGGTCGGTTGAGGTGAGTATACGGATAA into one of the categories.
high

###

The entries below come with measured PBM binding z-score values attached.
# Test system: LXRb:RXRa (NR concentration 270 nM, RXRa partner concentration 90 nM)
# Test: PBM binding z-score (relative to random genomic background probes); higher = stronger binding; sequences stand for … in GC…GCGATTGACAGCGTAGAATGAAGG
I'd appreciate a reply containing only the number, no unit.

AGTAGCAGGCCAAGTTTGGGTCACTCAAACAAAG	0.549

# next sequence below
// PBM binding z-score lookup, key: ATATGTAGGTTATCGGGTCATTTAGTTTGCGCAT
3.28

###

List of PBM binding z-score values.
# Test system: RARa:RXR (NR concentration 270 nM, RXRa partner concentration 90 nM)
# Test: PBM binding z-score (relative to random genomic background probes); higher = stronger binding; sequences stand for … in GC…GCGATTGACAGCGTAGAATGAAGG
No unit in the answer, only the number.

// below: answered sequences
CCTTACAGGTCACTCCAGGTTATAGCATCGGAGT	3.71
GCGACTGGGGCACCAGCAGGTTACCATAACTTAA	0.555
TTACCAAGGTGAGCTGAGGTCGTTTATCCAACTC	1.58

PBM binding z-score for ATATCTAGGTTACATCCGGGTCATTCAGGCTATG ?
3.4

Reported PBM binding z-score, sequence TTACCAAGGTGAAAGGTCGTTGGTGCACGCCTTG : ____
6.09

For the sequence shown here, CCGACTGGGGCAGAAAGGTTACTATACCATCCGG , give the reported PBM binding z-score.
1.18
